molecular target: T1, 4-1BB Fc (human, UniProt Q07011 24-183); experiment: ELISA, 4-1BB Fc coated, VHH at 0.005 nM
T1 construct: also called rh-41BB; 41BB-hFc
T1 sequence (Q07011 24-183): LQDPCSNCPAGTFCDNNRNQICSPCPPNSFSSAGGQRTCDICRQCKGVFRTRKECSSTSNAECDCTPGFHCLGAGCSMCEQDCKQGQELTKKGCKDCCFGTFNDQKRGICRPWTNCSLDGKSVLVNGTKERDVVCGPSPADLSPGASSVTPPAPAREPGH
reported.property: OD450
Give a plain numeric answer without units written out.

The cases that follow already have their OD450 on record.
binder="4-1BB-10 (VHH, not shown: small tags and cut ends) VHH: EVQLVESGGGLVQAGGSLRLSCAASGAIFSYNGMAWYRQAPGKQREFVAVITPDGTTKYGDSVKGRFTISRDITKNTVDLEMNSLKPEDTAVYTCAALRNSGSTSWGQGTQVTVSS" reported_property=OD450 experimental_value=0.066
binder="4-1BB-36 (VHH, not shown: small tags and cut ends) VHH: EVQLVESGGGLVQPGGSLRLSCAASRRTFSSYTAGWFRQAPGKEREFVASIRWISGTTTYADSVNGRFTISRDIAKNTVYLQMNSLKPDDTAVYYCAVDLSSDNDYDYWGQGTQVTVSS" reported_property=OD450 experimental_value=0.068
binder="4-1BB-1 (VHH, not shown: small tags and cut ends) VHH: QVQLVESGGGLVQAGGSLRLSCAASENIFSFNAMAWYRQAPGKQRELVALITGDGTTKYADSVKGRFTIARLNAKNTVNLEMNSLKPEDTAVYTCAALRNSDRTSWGQGTQVTVSS" reported_property=OD450 experimental_value=0.064

Now, please, on to the next binder.
[Q] Please report the recorded OD450 for 4-1BB-56 (VHH, not shown: small tags and cut ends) VHH: QVQLVESGGGLVQTGGSLRLSCAASGRISTIDTMFWYRQTPGKERDWVAFIPKDGLPTYVDSVKGRFTVSRDNARNTVYLQMNGLKPEDTAVYYCAVDVQEDRMRTYWGQGTQVTVSS .
[A] 0.203
